All figures here come from patent US12240844B2.

Tested Target: LRRK2 (G2019S) (Homo sapiens, UniProt Q5S007, G2019S)
Sequence (Q5S007 970-2527 G2019S limits assumed): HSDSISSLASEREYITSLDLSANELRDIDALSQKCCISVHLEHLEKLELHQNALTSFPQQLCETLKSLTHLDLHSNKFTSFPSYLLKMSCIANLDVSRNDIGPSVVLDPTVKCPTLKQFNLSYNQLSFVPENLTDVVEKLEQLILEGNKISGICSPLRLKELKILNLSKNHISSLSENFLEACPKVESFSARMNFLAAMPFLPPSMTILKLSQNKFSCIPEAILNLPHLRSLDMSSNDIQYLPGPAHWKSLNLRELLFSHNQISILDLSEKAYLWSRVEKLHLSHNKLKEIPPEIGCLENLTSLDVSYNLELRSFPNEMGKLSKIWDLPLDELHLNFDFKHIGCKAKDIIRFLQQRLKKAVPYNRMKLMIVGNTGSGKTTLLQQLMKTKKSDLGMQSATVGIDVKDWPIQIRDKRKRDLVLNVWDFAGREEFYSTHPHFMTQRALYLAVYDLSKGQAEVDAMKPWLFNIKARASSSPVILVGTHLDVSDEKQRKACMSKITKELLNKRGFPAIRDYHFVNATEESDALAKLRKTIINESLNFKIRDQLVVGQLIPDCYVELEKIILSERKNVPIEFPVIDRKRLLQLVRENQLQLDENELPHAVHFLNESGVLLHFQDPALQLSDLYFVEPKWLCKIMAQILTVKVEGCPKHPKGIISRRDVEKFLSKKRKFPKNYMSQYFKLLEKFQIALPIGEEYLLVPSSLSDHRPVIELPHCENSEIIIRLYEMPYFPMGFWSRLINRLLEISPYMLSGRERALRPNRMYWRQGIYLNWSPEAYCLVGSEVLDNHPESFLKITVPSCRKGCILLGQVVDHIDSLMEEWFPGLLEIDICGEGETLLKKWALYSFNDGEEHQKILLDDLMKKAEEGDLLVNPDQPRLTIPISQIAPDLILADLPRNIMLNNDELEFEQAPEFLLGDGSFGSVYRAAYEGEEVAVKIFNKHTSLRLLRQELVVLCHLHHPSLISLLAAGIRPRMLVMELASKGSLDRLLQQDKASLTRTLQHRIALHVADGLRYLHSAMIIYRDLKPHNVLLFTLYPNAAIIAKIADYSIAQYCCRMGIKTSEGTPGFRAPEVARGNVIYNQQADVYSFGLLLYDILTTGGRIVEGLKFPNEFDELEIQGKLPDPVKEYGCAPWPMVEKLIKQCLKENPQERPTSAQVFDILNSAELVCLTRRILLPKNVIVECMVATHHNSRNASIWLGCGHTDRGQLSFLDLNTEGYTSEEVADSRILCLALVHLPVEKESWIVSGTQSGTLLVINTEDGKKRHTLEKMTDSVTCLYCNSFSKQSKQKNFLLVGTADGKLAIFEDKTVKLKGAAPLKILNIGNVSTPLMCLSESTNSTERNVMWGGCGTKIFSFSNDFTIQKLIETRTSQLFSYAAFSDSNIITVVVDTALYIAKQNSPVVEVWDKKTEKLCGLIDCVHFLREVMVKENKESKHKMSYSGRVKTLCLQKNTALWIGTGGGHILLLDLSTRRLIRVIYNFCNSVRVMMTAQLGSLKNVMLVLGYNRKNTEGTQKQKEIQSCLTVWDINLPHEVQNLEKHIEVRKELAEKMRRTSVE
Test: LRRK2 G2019S enzyme inhibition, ADP-Glo kinase assay
Endpoint Name: IC50

Answered cases to consult:
{"Compound Structure String": "CCNc1cc(Nc2ccc(C(=O)N3CCOCC3)c3c2OCC3)nc2[nH]cc(C(F)(F)F)c12", "IC50": "< 100 nM"}
{"Compound Structure String": "O=C(c1ccc(Nc2cc(NC3CC3)c3c(C(F)(F)F)c[nH]c3n2)c2c1OCCO2)N1CCC(N2CCOCC2)CC1", "IC50": "< 100 nM"}
{"Compound Structure String": "COc1cc(S(=O)(=O)N2CCOCC2)ccc1Nc1cc(NC2CC2)c2cc[nH]c2n1", "IC50": "< 100 nM"}
{"Compound Structure String": "CCNc1cc(Nc2ccc(C(=O)N3CC[C@@H](N4CCOCC4)C3)c3c2OCC3)nc2[nH]cc(C(F)(F)F)c12", "IC50": "101 to 300 nM"}
{"Compound Structure String": "CCNc1cc(Nc2ccc(S(=O)(=O)N3CCC(N4CCOCC4)CC3)cc2OC)nc2[nH]cc(C#N)c12", "IC50": "< 100 nM"}

Below are some compounds; for each one, tell me its IC50.
1. CCCNc1cc(Nc2ccc(S(=O)(=O)N3CCC(N4CCOCC4)CC3)cc2OC)nc2[nH]cc(C#N)c12
2. COc1cc(S(C)(=O)=O)ccc1Nc1cc(NCCS(C)(=O)=O)c2c(C#N)c[nH]c2n1
3. CCNc1cc(Nc2ccc(C(=O)N3CCOCC3)c3c2OCO3)nc2[nH]cc(C(F)(F)F)c12
4. CNc1cc(Nc2ccc(S(=O)(=O)N3CCC(N4CCOCC4)CC3)cc2OC)nc2[nH]ccc12
5. CCNc1cc(Nc2ccc(P(C)(=O)O)cc2OC)nc2[nH]ccc12
6. CCNc1cc(Nc2ccc(P3(=O)CCN(Cc4ccc(OC)cc4OC)CC3)cn2)nc2[nH]cc(C(F)(F)F)c12

1. < 100 nM
2. < 100 nM
3. 101 to 300 nM
4. < 100 nM
5. 301 to 1000 nM
6. < 100 nM

Below are some compounds; for each one, tell me its IC50.
1. CCNc1cc(Nc2ccc(C(=O)N3CCC(N4C[C@H]5C[C@@H]4CO5)CC3)c3c2OCC3)nc2[nH]cc(C(F)(F)F)c12
2. N#Cc1c[nH]c2nc(Nc3ccc(C(=O)N4CCC(N5CCOCC5)CC4)c4c3OCCO4)cc(C3CC3)c12
3. COCCNc1cc(Nc2ccc(S(=O)(=O)N3CCOCC3)cc2OC)nc2[nH]cc(C#N)c12
4. COc1cc(S(=O)(=O)N2CCC(N3CCOCC3)CC2)ccc1Nc1cc(NC2CCCCC2)c2c(C(F)(F)F)c[nH]c2n1
5. O=C(c1ccc(Nc2cc(NC3CCCCC3)c3cc[nH]c3n2)c2c1OCCO2)N1CCOCC1

< 100 nM
< 100 nM
< 100 nM
301 to 1000 nM
101 to 300 nM

----------
Tested Target: DYRK1A (Homo sapiens)
Construct: purchased DiscoverX
Test: scanMAX Kinase panel (DiscoverX), % control
Assay type: binding
Settings: <35% = active
Category scheme (remaining binding at 1 µM): bottom range (below 0.2%), center range (0.2% to below 2%), top range (2% or more)

The examples below pair each entry with its known result.
{"Compound Structure String": "CNc1cc(Nc2ccc(C(=O)N3CCC(N4CCOCC4)CC3)c3c2OCCO3)nc2[nH]cc(C(F)(F)F)c12", "Assigned Label": "center range"}
{"Compound Structure String": "CNc1cc(Nc2ccc(S(=O)(=O)N3CCC(N4CCOCC4)CC3)cc2OC)nc2[nH]cc(C(F)(F)F)c12", "Assigned Label": "bottom range"}
{"Compound Structure String": "CNc1cc(Nc2ccc(P3(=O)CCN(C4CC4)CC3)cc2OC)nc2[nH]cc(C(F)(F)F)c12", "Assigned Label": "center range"}
{"Compound Structure String": "COCCNc1cc(Nc2ccc(P3(=O)CCN(C4CC4)CC3)cc2OC)nc2[nH]cc(C(F)(F)F)c12", "Assigned Label": "center range"}
{"Compound Structure String": "CNc1cc(Nc2ccc(C(=O)N3CC[C@H](N4CCOCC4)C3)c3c2OCC3)nc2[nH]cc(C(F)(F)F)c12", "Assigned Label": "bottom range"}

Lab note: which band did CCNc1cc(Nc2ccc(C(=O)N3CCC(N4C[C@@H]5C[C@H]4CO5)CC3)c3c2OCC3)nc2[nH]cc(C(F)(F)F)c12 land in?
bottom range

Lab note: which band did O=C(c1ccc(Nc2cc(C3CC3)c3c(C(F)(F)F)c[nH]c3n2)c2c1CCO2)N1CC[C@@H](N2CCOCC2)C1 land in?
center range

Lab note: which band did CCNc1cc(Nc2ccc(S(=O)(=O)N3CCC(N4CCOCC4)CC3)c3c2OCCO3)nc2[nH]cc(C(F)(F)F)c12 land in?
center range

Lab note: which band did CCCNc1cc(Nc2ccc(C(=O)N3CCC(N4CCOCC4)CC3)c3c2OCCO3)nc2[nH]cc(C(F)(F)F)c12 land in?
center range

Lab note: which band did O=C(c1ccc(Nc2cc(C3CC3)c3c(C(F)(F)F)c[nH]c3n2)c2c1CCO2)N1CC[C@H](N2CCOCC2)C1 land in?
top range

Lab note: which band did O=C(c1ccc(Nc2cc(C3CC3)c3c(C(F)(F)F)c[nH]c3n2)c2c1OCCO2)N1CCC(N2CCOCC2)CC1 land in?
top range
